Data origin, for the record: patent US20070238862A1

STUDY_SYSTEM: T1, human ChemerinR (human, UniProt Q99788 3-373)
T1 sequence: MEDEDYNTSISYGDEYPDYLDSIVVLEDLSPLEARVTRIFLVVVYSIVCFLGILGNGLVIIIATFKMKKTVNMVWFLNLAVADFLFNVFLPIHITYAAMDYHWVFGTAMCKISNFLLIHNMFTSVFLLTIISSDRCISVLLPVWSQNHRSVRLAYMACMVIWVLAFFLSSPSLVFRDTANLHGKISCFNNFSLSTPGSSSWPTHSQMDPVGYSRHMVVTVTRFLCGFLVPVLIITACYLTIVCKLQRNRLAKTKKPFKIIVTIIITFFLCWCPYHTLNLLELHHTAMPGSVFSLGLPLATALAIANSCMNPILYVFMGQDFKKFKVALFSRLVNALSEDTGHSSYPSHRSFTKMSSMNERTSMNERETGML
TEST_PROTOCOL: cell-based or functional assay
No end group written: not given here.
Each record is given Satisfied if its reported EC50 (nM), Calcium flux-Aequoscreen assay on ChemerinR expressing cells is strictly below 30 nM. Records at or above 30 nM are given Not satisfied.

[ask] Please state whether EC50 (nM), Calcium flux-Aequoscreen assay on ChemerinR expressing cells is below 30 nM for `IFPGQFAFS`
[reply] Satisfied

[ask] Please state whether EC50 (nM), Calcium flux-Aequoscreen assay on ChemerinR expressing cells is below 30 nM for YFPGQFAFD-NH2 [YFPGQFAFD-CONH2]
[reply] Satisfied

[ask] Please state whether EC50 (nM), Calcium flux-Aequoscreen assay on ChemerinR expressing cells is below 30 nM for `LFPGQFAFS`
[reply] Not satisfied

[ask] Please state whether EC50 (nM), Calcium flux-Aequoscreen assay on ChemerinR expressing cells is below 30 nM for `YVPGQFAFS`
[reply] Not satisfied
